B1: IMPA1 (parent)
chain: FIGEESVAAGEKSILTDNPTWIID

variants of: B1; experiment: protein stability index of a GFP-peptide fusion (GPS, HEK-293T) (PSI 1-6); higher = more stable; details: c terminus: a fixed tail appended;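 note: lentivirally expressed fusions sorted by FACS into six bins by GFP to DsRed ratio, PSI derived from sequencing read proportions per bin multiplied by bin number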
Provide the recorded protein stability index for the entries that follow.

Task: What value of measured protein stability index is listed for "I14A" ?
Result: 2.47

Task: What value of measured protein stability index is listed for "V7E" ?
Result: 3.03

Task: What value of measured protein stability index is listed for "D17Q" ?
Result: 1.78

Task: What value of measured protein stability index is listed for "D24T" ?
Result: 1.7

Task: What value of measured protein stability index is listed for "T20N" ?
Result: 3.1

Task: What value of measured protein stability index is listed for "A8T" ?
Result: 2.13

Task: What value of measured protein stability index is listed for "P19H" ?
Result: 3.02

Task: What value of measured protein stability index is listed for "D17G" ?
Result: 2.08

Task: What value of measured protein stability index is listed for "W21E" ?
Result: 5.07

Task: What value of measured protein stability index is listed for "E11V" ?
Result: 1.92

Task: What value of measured protein stability index is listed for "W21V" ?
Result: 4.95

Task: What value of measured protein stability index is listed for "W21T" ?
Result: 4.87

Task: What value of measured protein stability index is listed for "K12L" ?
Result: 2.25

Task: What value of measured protein stability index is listed for "I22F" ?
Result: 2.01

Task: What value of measured protein stability index is listed for "I2D" ?
Result: 4.79

Task: What value of measured protein stability index is listed for "E5T" ?
Result: 2.38

Task: What value of measured protein stability index is listed for "G10F" ?
Result: 1.85

Task: What value of measured protein stability index is listed for "F1Q" ?
Result: 4.87

Task: What value of measured protein stability index is listed for "E11Y" ?
Result: 1.93

Task: What value of measured protein stability index is listed for "K12H" ?
Result: 2.06

Task: What value of measured protein stability index is listed for "E11S" ?
Result: 2.17

Task: What value of measured protein stability index is listed for "L15W" ?
Result: 2.48

Task: What value of measured protein stability index is listed for "F1P" ?
Result: 4.56

Task: What value of measured protein stability index is listed for "E4R" ?
Result: 2.04

Task: What value of measured protein stability index is listed for "E5F" ?
Result: 3.35

Task: What value of measured protein stability index is listed for "T20C" ?
Result: 2.2

Task: What value of measured protein stability index is listed for "N18L" ?
Result: 2.88

Task: What value of measured protein stability index is listed for "G3W" ?
Result: 1.59

Task: What value of measured protein stability index is listed for "A8E" ?
Result: 2.79

Task: What value of measured protein stability index is listed for "E4H" ?
Result: 1.76

Task: What value of measured protein stability index is listed for "A9K" ?
Result: 1.96

Task: What value of measured protein stability index is listed for "E4A" ?
Result: 2.54

Task: What value of measured protein stability index is listed for "P19A" ?
Result: 2.41

Task: What value of measured protein stability index is listed for "E4I" ?
Result: 1.84

Task: What value of measured protein stability index is listed for "E4N" ?
Result: 1.98

Task: What value of measured protein stability index is listed for "G10S" ?
Result: 2

Task: What value of measured protein stability index is listed for "F1K" ?
Result: 4.61

Task: What value of measured protein stability index is listed for "F1S" ?
Result: 4.96

Task: What value of measured protein stability index is listed for "E4W" ?
Result: 3.71

Task: What value of measured protein stability index is listed for "W21I" ?
Result: 3.92

Task: What value of measured protein stability index is listed for "V7C" ?
Result: 2

Task: What value of measured protein stability index is listed for "G3S" ?
Result: 1.89

Task: What value of measured protein stability index is listed for "T16V" ?
Result: 2.21

Task: What value of measured protein stability index is listed for "I2R" ?
Result: 4.28

Task: What value of measured protein stability index is listed for "A9L" ?
Result: 1.78

Task: What value of measured protein stability index is listed for "I23W" ?
Result: 2.59

Task: What value of measured protein stability index is listed for "K12E" ?
Result: 2.21

Task: What value of measured protein stability index is listed for "D24C" ?
Result: 1.72

Task: What value of measured protein stability index is listed for "S6F" ?
Result: 1.81

Task: What value of measured protein stability index is listed for "I23M" ?
Result: 2.52

Task: What value of measured protein stability index is listed for "G10I" ?
Result: 2.43

Task: What value of measured protein stability index is listed for "I2A" ?
Result: 2.59

Task: What value of measured protein stability index is listed for "E11I" ?
Result: 2.1

Task: What value of measured protein stability index is listed for "I2Q" ?
Result: 3.89

Task: What value of measured protein stability index is listed for "S13R" ?
Result: 2.4

Task: What value of measured protein stability index is listed for "I2L" ?
Result: 2.99

Task: What value of measured protein stability index is listed for "S13N" ?
Result: 1.98

Task: What value of measured protein stability index is listed for "W21K" ?
Result: 4.78

Task: What value of measured protein stability index is listed for "D24K" ?
Result: 2.07

Task: What value of measured protein stability index is listed for "I14Q" ?
Result: 2.01

Task: What value of measured protein stability index is listed for "S13G" ?
Result: 1.67

Task: What value of measured protein stability index is listed for "I23G" ?
Result: 2.99

Task: What value of measured protein stability index is listed for "F1C" ?
Result: 4.46

Task: What value of measured protein stability index is listed for "F1G" ?
Result: 4.86

Task: What value of measured protein stability index is listed for "L15F" ?
Result: 2.06

Task: What value of measured protein stability index is listed for "N18D" ?
Result: 3.68

Task: What value of measured protein stability index is listed for "N18K" ?
Result: 2.73

Task: What value of measured protein stability index is listed for "T16K" ?
Result: 2.73

Task: What value of measured protein stability index is listed for "A9E" ?
Result: 2.42

Task: What value of measured protein stability index is listed for "T16M" ?
Result: 2.38

Task: What value of measured protein stability index is listed for "W21L" ?
Result: 4.06

Task: What value of measured protein stability index is listed for "I23S" ?
Result: 2.27

Task: What value of measured protein stability index is listed for "E4D" ?
Result: 2.01

Task: What value of measured protein stability index is listed for "V7H" ?
Result: 2.06

Task: What value of measured protein stability index is listed for "E4C" ?
Result: 2.04

Task: What value of measured protein stability index is listed for "G10W" ?
Result: 1.83

Task: What value of measured protein stability index is listed for "S13L" ?
Result: 1.95

Task: What value of measured protein stability index is listed for "P19S" ?
Result: 2.38

Task: What value of measured protein stability index is listed for "S13W" ?
Result: 2.21

Task: What value of measured protein stability index is listed for "P19M" ?
Result: 2.27

Task: What value of measured protein stability index is listed for "I14L" ?
Result: 1.78

Task: What value of measured protein stability index is listed for "N18G" ?
Result: 2.71

Task: What value of measured protein stability index is listed for "W21M" ?
Result: 4.69

Task: What value of measured protein stability index is listed for "I14N" ?
Result: 2.23

Task: What value of measured protein stability index is listed for "E11A" ?
Result: 1.86

Task: What value of measured protein stability index is listed for "I22Y" ?
Result: 2.82

Task: What value of measured protein stability index is listed for "T20D" ?
Result: 3.32

Task: What value of measured protein stability index is listed for "L15I" ?
Result: 1.98

Task: What value of measured protein stability index is listed for "L15K" ?
Result: 2.47

Task: What value of measured protein stability index is listed for "L15V" ?
Result: 2.52

Task: What value of measured protein stability index is listed for "K12W" ?
Result: 1.97
